Tested on: PSMA+ PC-3 PiP and PSMA− PC-3 flu tumors
Details: 24 h; co-injection 0.5 nmole YC-I-27
Item-by-item account of Biodistribution: kidneys
Give the number; % injected dose/gram is assumed, so skip it.

The following molecules have reported results that may help.
INSERT INTO assay_data (molecule, systemname, displayunit, obsvalue) VALUES
  ('O=C([O-])CN1CCN(CC(=O)[O-])CCN(CC(=O)NCCCCC(=O)N(CCCC[C@H](NC(=O)N[C@@H](CCC(=O)O)C(=O)O)C(=O)O)Cc2ccc([125I])cc2)CCN(CC(=O)[O-])CC1.[Lu+3] [[^125I]VK-02-90-Lu]', 'PSMA+ PC-3 PiP and PSMA− PC-3 flu tumors', '% injected dose/gram', 0.5),
  ('O=C(O)CC[C@H](NC(=O)N[C@@H](CCCCN(Cc1ccc([125I])cc1)C(=O)CCCCNC(=O)CN1CCN(CC(=O)O)CCN(CC(=O)O)CCN(CC(=O)O)CC1)C(=O)O)C(=O)O [[^125I]VK-02-90]', 'PSMA+ PC-3 PiP and PSMA− PC-3 flu tumors', '% injected dose/gram', 0.3),
  ('O=C(O)CC[C@H](NC(=O)N[C@@H](CCC(=O)NCCc1ccc([125I])cc1)C(=O)O)C(=O)O [[^125I]HS-549]', 'PSMA+ PC-3 PiP and PSMA− PC-3 flu tumors', '% injected dose/gram', 0.7);

Lab note: next molecule to report on.
Log: PSMA+ PC-3 PiP and PSMA− PC-3 flu tumors, molecule O=C([O-])CN1CCN(CC(=O)[O-])CCN(CC(=O)NCCCCC(=O)N(CCCC[C@H](NC(=O)N[C@@H](CCC(=O)O)C(=O)O)C(=O)O)Cc2ccc([211At])cc2)CCN(CC(=O)[O-])CC1.[Lu+3] [[^211At]VK-02-90-Lu] , Biodistribution: kidneys = 0.4

---

System: PSMA+ PC-3 PiP and PSMA− PC-3 flu tumors
Details: 1 h; No CI
measure: Biodistribution: PiP tumor (% injected dose/gram)
Give the number; % injected dose/gram is assumed, so skip it.

The following compounds have reported results that may help.
INSERT INTO results (compound, measure, displayunit, obsvalue) VALUES
  ('O=C([O-])CN1CCN(CC(=O)[O-])CCN(CC(=O)NCCCCC(=O)N(CCCC[C@H](NC(=O)N[C@@H](CCC(=O)O)C(=O)O)C(=O)O)Cc2ccc([211At])cc2)CCN(CC(=O)[O-])CC1.[Lu+3] [[^211At]VK-02-90-Lu]', 'Biodistribution: PiP tumor', '% injected dose/gram', 31),
  ('O=C(O)CC[C@H](NC(=O)N[C@@H](CCC(=O)NCCc1ccc([125I])cc1)C(=O)O)C(=O)O [[^125I]HS-549]', 'Biodistribution: PiP tumor', '% injected dose/gram', 78);

Data point: O=C(O)CC[C@H](NC(=O)N[C@@H](CCCCN(Cc1ccc([125I])cc1)C(=O)CCCCNC(=O)CN1CCN(CC(=O)O)CCN(CC(=O)O)CCN(CC(=O)O)CC1)C(=O)O)C(=O)O [[^125I]VK-02-90] ; Biodistribution: PiP tumor = 58

Data point: O=C([O-])CN1CCN(CC(=O)[O-])CCN(CC(=O)NCCCCC(=O)N(CCCC[C@H](NC(=O)N[C@@H](CCC(=O)O)C(=O)O)C(=O)O)Cc2ccc([125I])cc2)CCN(CC(=O)[O-])CC1.[Lu+3] [[^125I]VK-02-90-Lu] ; Biodistribution: PiP tumor = 26
